# Tested on: HL-60
# ASSAY_COMMENT: Enhancement of 12-O-tetradecanoylphorbol-13-acetate-induced TNFalpha production in human HL60 cell at 30 uM after 16 hrs by ELISA relative to control
# Format: functional
Threshold 200%: Activity strictly smaller gives yes, otherwise no.

Say whether its Activity is strictly beneath 200%. Entry: O=C1CCC(N2C(=O)c3cccc4cc([N+](=O)[O-])cc(c34)C2=O)C(=O)N1 (configuration not stated)
no

Say whether its Activity is strictly beneath 200%. Entry: O=C1CCC(N2C(=O)C(c3ccccc3)=C(c3ccccc3)C2=O)C(=O)N1 (configuration not stated)
yes

Say whether its Activity is strictly beneath 200%. Entry: O=C1CCC(N2C(=O)c3ccc4ccccc4c3C2=O)C(=O)N1 (configuration not stated)
yes

Say whether its Activity is strictly beneath 200%. Entry: NC(=O)CCC(C(=O)O)N1C(=O)c2cccc3cc(N)cc(c23)C1=O (configuration not stated)
yes

Say whether its Activity is strictly beneath 200%. Entry: O=C1CCC(N2C(=O)c3cc4ccccc4cc3C2=O)C(=O)N1 (configuration not stated)
yes

Say whether its Activity is strictly beneath 200%. Entry: CN(C)CCN1C(=O)CCC(N2C(=O)C(c3ccccc3)=C(c3ccccc3)C2=O)C1=O (configuration not stated)
no

Say whether its Activity is strictly beneath 200%. Entry: CN(C)CCN1C(=O)CCC(n2c(=O)c3cc4c(=O)n(C5CCC(=O)N(CCN(C)C)C5=O)c(=O)c4cc3c2=O)C1=O (configuration not stated)
yes

* * *

Exercise: state measured Activity for each of the compounds provided.
# System: HL-60
# ASSAY_COMMENT: Enhancement of 12-O-tetradecanoylphorbol-13-acetate-induced TNFalpha production in human HL60 cell at 30 uM after 16 hrs by ELISA relative to control
# Format: functional
Your answer is read as %, so omit the unit and give the number.

Quick check: Activity of NC(=O)CCC(C(=O)O)N1C(=O)c2ccc3ccccc3c2C1=O (stereo unspecified) ?
146

Quick check: Activity of NC(=O)CCC(C(=O)O)N1C(=O)c2cccc3cccc(c23)C1=O (stereo unspecified) ?
116

Quick check: Activity of Nc1cc2c3c(cccc3c1)C(=O)N(C1CCC(=O)NC1=O)C2=O (stereo unspecified) ?
138

Quick check: Activity of CN(C)CCN1C(=O)CCC(N2C(=O)c3cc4ccccc4cc3C2=O)C1=O (stereo unspecified) ?
149

Quick check: Activity of CN(C)CCN1C(=O)CCC(N2C(=O)c3ccccc3C2=O)C1=O (stereo unspecified) ?
125

Quick check: Activity of CN(C)CCN1C(=O)CCC(N2C(=O)c3ccc4ccccc4c3C2=O)C1=O (stereo unspecified) ?
105

* * *

# System: HUVEC
# ASSAY_COMMENT: Cytotoxicity against HUVEC by MTT assay
# Assay type: cell-based
# TEST_CONTEXT: Homo sapiens
pIC50: −log10 of the molar value.
Exercise: state measured pIC50 for each of the compounds provided.

Quick check: pIC50 of CN(C)CCN1C(=O)CCC(N2C(=O)c3cc4ccccc4cc3C2=O)C1=O (stereo not given) ?
< 4.30

Quick check: pIC50 of NC(=O)CCC(C(=O)O)N1C(=O)c2cccc3cc([N+](=O)[O-])cc(c23)C1=O (stereo not given) ?
< 4.30

Quick check: pIC50 of CN(C)CCN1C(=O)CCC(N2C(=O)c3ccccc3C2=O)C1=O (stereo not given) ?
< 4.30

Quick check: pIC50 of O=C1CCC(N2C(=O)c3cccc4cc([N+](=O)[O-])cc(c34)C2=O)C(=O)N1 (stereo not given) ?
< 4.30

Quick check: pIC50 of CN(C)CCN1C(=O)CCC(N2C(=O)c3ccc4ccccc4c3C2=O)C1=O (stereo not given) ?
< 4.30

* * *

# Tested on: HL-60
# ASSAY_COMMENT: Enhancement of 12-O-tetradecanoylphorbol-13-acetate-induced TNFalpha production in human HL60 cell at 30 uM after 16 hrs by ELISA relative to control
# Format: functional
ASSAY_ENDPOINT: Activity (%)
Your answer is read as %, so omit the unit and give the number.

// map O=C1CCC(N2C(=O)c3cccc4cccc(c34)C2=O)C(=O)N1 (stereo not given) to recorded Activity (system: HL-60)
158

// map CN(C)CCN1C(=O)CCC(N2C(=O)c3cccc4cc([N+](=O)[O-])cc(c34)C2=O)C1=O (stereo not given) to recorded Activity (system: HL-60)
124

// map CN(CCN1C(=O)CCC(N2C(=O)c3ccccc3C2=O)C1=O)CCN1C(=O)CCC(N2C(=O)c3ccccc3C2=O)C1=O (stereo not given) to recorded Activity (system: HL-60)
159

// map CN(C)CCN1C(=O)CCC(N2C(=O)c3cccc4cccc(c34)C2=O)C1=O (stereo not given) to recorded Activity (system: HL-60)
107

// map NC(=O)CCC(C(=O)O)N1C(=O)C(c2ccccc2)=C(c2ccccc2)C1=O (stereo not given) to recorded Activity (system: HL-60)
146

* * *

# Tested on: HL-60
# ASSAY_COMMENT: Enhancement of 12-O-tetradecanoylphorbol-13-acetate-induced TNFalpha production in human HL60 cell at 30 uM after 16 hrs by ELISA relative to control
# Assay type: functional
Threshold 200%: Activity strictly smaller gives true (1), otherwise false (0).

Say whether its Activity is strictly beneath 200%. Entry: O=C1CCC(n2c(=O)c3cc4c(=O)n(C5CCC(=O)NC5=O)c(=O)c4cc3c2=O)C(=O)N1 (stereo not given)
false (0)

Say whether its Activity is strictly beneath 200%. Entry: CN(C)CCN1C(=O)CCC(N2C(=O)c3cccc4cc(N)cc(c34)C2=O)C1=O (stereo not given)
true (1)

Say whether its Activity is strictly beneath 200%. Entry: NC(=O)CCC(C(=O)O)N1C(=O)c2cccc3cc([N+](=O)[O-])cc(c23)C1=O (stereo not given)
true (1)

Say whether its Activity is strictly beneath 200%. Entry: NC(=O)CCC(C(=O)O)N1C(=O)c2cc3ccccc3cc2C1=O (stereo not given)
false (0)

Say whether its Activity is strictly beneath 200%. Entry: O=C1CCC(N2C(=O)c3ccccc3C2=O)C(=O)N1 (stereo not given) [THALIDOMIDE]
true (1)

* * *

# Tested on: HL-60
# ASSAY_COMMENT: Cytotoxicity against human HL60 cells by MTT assay
# Format: functional, cell-based
ASSAY_ENDPOINT: IC50

Quick check: IC50 of Nc1cc2c3c(cccc3c1)C(=O)N(C1CCC(=O)NC1=O)C2=O (stereo not given) ?
> 50 µM

Quick check: IC50 of CN(C)CCN1C(=O)CCC(N2C(=O)c3cc4ccccc4cc3C2=O)C1=O (stereo not given) ?
> 50 µM

Quick check: IC50 of O=C1CCC(N2C(=O)c3ccccc3C2=O)C(=O)N1 (stereo not given) [THALIDOMIDE] ?
> 50 µM

Quick check: IC50 of NC(=O)CCC(C(=O)O)N1C(=O)c2cccc3cc([N+](=O)[O-])cc(c23)C1=O (stereo not given) ?
> 50 µM

Quick check: IC50 of O=C1CCC(N2C(=O)c3cccc4cccc(c34)C2=O)C(=O)N1 (stereo not given) ?
> 50 µM
